target: MAO-A (Homo sapiens, UniProt P21397); experiment: Inhibition of N-terminal FLAG-tagged full length recombinant human MAO-A expressed in Sf9 cells at 1 uM using luciferin derived luminogenic substrate preincubated for 15 mins followed by substrate addition and measured after 60 mins by MAO-Glo assay relative to control; conditions: probe luciferin derived luminogenic substrate
Sequence (P21397 whole entry): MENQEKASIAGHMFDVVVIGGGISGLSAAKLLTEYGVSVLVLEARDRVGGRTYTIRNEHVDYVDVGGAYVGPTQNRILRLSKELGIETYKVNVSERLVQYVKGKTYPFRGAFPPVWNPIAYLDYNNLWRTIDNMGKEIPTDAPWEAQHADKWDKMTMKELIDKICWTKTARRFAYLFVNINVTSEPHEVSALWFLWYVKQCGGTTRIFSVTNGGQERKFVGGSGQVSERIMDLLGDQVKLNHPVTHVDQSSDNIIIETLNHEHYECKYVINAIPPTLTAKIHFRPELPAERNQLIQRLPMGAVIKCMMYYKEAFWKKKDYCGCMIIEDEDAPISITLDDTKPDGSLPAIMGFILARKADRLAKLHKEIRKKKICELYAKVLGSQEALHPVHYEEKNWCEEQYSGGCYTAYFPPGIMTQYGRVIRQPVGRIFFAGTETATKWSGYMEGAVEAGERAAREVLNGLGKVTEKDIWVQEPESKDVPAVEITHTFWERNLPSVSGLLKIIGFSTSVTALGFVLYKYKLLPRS
Endpoint name: inhibition at 1 h, 1 µM (%)
Respond with the bare value in %.

Observed inhibition at 1 h, 1 µM on MAO-A (Homo sapiens, UniProt P21397) for Cc1cc(Nc2ccc(N3CCN(C)CC3)cc2)n2nc(SCc3nc4ccccc4[nH]3)nc2n1 , please.
13

---

target: MAO-B (Homo sapiens); test: Inhibition of N-terminal FLAG-tagged full length recombinant human MAO-B expressed in Sf9 cells at 1 uM using luciferin derived luminogenic substrate preincubated for 15 mins followed by substrate addition and measured after 60 mins by MAO-Glo assay relative to control; conditions: probe luciferin derived luminogenic substrate
Sequence (P27338 whole entry): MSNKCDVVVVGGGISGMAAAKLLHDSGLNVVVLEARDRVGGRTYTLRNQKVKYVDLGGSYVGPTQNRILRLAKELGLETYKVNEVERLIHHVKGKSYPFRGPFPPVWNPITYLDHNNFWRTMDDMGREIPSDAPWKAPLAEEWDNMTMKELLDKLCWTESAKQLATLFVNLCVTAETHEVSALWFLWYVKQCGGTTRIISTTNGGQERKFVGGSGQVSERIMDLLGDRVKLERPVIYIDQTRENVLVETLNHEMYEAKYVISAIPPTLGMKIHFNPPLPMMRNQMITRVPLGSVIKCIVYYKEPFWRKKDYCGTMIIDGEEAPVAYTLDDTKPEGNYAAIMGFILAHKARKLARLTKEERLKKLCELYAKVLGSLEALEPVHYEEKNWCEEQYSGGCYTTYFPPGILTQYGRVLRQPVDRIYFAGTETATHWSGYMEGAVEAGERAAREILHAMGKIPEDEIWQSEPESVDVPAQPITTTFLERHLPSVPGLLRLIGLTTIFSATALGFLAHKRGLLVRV
Endpoint name: inhibition at 1 h, 1 µM (%)
Respond with the bare value in %.

Observed inhibition at 1 h, 1 µM on MAO-B (Homo sapiens) for Cc1cc(Nc2ccc(N3CCN(C)CC3)cc2)n2nc(SCc3nc4ccccc4[nH]3)nc2n1 , please.
18
